Examples of binders with documented Kd follow.
# tested-target: T1, human MSLN-His-Avi (human, UniProt Q13421 296-598, single biotin (BirA) in the biotinylated form)
# T1 construct: Monomeric, made in HEK293-6E; Used both immobilised and in solution; also called hMSLN-His-Avi; biotinylated hMSLN-His-Avi
# T1 sequence (Q13421 other isoform, or with tags, fused parts or gaps): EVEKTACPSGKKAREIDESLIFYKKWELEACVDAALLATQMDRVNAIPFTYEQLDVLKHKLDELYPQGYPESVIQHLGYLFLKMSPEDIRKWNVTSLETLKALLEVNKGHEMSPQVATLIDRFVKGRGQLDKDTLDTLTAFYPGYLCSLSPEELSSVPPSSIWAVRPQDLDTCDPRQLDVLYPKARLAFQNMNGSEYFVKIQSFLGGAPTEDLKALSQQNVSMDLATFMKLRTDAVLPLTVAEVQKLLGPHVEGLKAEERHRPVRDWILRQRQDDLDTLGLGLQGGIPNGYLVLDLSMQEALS
# experimental-protocol: SPR as Example 4.1 (about 40 RU instead of 100), MSLN immobilised
Provide only the numeric value, understood in nM.

Example results:
FS28-256-273 (in CD137 mAb^2 format) (bispecific antibody, V domains shown) VH: EVQLLESGGGLVQPGGSLRLSCAASGFTFTHTYMSWVRQAPGKGLEWVSSISPTYSTTNYADSVKGRFTISRDNNKNTLYLQMNSLRAEDTAVYYCARYNAYHAALDYWGQGTLVTVSS VL: EIVLTQSPGTLSLSPGERATLSCRASQSVSSSYLAWYQQKPGQAPRLLIYGASSRATGIPDRFSGSGSGTDFTLTISRLEPEDFAVYYCQQTVPYPYTFGQGTKVEIK ... 6
FS28-256-271 (in CD137 mAb^2 format) (bispecific antibody, V domains shown) VH: EVQLLESGGGLVQPGGSLRLSCAASGFTFTHTYMSWVRQAPGKGLEWVSAISPTYSTTNYADSVKGRFTISRDNNKNTLYLQMNSLRAEDTAVYYCARYNAYHAALDYWGQGTLVTVSS VL: EIVLTQSPGTLSLSPGERATLSCRASQSVSSSYLAWYQQKPGQAPRLLIYGASSRATGIPDRFSGSGSGTDFTLTISRLEPEDFAVYYCQQTVPYPYTFGQGTKVEIK ... 5.9

# next binder below
Memo: FS28-256-272 (in CD137 mAb^2 format) (bispecific antibody, V domains shown, Position 55 is IMGT numbering, not the count on the entry) VH: EVQLLESGGGLVQPGGSLRLSCAASGFTFTHTYMSWVRQAPGKGLEWVSHISPTYSTTNYADSVKGRFTISRDNNKNTLYLQMNSLRAEDTAVYYCARYNAYHAALDYWGQGTLVTVSS VL: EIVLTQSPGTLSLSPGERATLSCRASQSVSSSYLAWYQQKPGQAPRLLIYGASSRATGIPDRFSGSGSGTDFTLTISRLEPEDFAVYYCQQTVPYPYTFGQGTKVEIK , reported Kd: 10.7
